Target: T1, human collagen type I, acid soluble, extracted from placenta (Sigma C7774) (human, UniProt P02452 162-1218; P08123 80-1119)
T1 construct: tissue extract, gelled and dried in wells; also called dried human collagen; h-Collagen
T1 sequence (P02452 162-1218 limits assumed, chain 1 of 2): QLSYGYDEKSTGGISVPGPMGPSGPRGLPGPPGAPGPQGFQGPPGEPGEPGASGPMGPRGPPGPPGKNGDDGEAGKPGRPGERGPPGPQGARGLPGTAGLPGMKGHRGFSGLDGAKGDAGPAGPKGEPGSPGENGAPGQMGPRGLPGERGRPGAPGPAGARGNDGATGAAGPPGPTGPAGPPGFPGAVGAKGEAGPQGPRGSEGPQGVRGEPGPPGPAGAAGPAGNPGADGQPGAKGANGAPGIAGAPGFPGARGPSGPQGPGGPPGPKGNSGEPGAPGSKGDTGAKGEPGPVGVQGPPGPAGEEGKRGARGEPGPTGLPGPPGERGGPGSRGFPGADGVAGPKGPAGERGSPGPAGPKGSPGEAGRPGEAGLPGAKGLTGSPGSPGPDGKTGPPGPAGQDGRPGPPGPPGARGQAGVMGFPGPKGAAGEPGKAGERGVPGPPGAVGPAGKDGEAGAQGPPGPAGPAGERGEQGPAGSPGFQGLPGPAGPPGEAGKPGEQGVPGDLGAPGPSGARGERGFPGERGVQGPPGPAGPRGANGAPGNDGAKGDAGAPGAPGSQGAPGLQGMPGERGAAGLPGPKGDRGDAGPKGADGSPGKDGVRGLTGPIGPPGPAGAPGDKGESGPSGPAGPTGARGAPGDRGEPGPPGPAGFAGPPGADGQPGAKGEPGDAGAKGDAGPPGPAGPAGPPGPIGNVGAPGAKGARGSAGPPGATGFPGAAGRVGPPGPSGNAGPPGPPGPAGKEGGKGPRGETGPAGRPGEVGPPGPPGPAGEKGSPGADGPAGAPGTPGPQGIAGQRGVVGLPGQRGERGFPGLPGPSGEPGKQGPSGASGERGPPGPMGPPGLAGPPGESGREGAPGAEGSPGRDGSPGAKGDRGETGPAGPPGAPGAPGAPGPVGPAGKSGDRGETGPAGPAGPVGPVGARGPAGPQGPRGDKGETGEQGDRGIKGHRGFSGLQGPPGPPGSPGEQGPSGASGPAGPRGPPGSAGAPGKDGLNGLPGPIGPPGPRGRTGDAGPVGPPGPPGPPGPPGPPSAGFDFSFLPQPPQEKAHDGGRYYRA
T1 sequence (P08123 80-1119 limits assumed, chain 2 of 2): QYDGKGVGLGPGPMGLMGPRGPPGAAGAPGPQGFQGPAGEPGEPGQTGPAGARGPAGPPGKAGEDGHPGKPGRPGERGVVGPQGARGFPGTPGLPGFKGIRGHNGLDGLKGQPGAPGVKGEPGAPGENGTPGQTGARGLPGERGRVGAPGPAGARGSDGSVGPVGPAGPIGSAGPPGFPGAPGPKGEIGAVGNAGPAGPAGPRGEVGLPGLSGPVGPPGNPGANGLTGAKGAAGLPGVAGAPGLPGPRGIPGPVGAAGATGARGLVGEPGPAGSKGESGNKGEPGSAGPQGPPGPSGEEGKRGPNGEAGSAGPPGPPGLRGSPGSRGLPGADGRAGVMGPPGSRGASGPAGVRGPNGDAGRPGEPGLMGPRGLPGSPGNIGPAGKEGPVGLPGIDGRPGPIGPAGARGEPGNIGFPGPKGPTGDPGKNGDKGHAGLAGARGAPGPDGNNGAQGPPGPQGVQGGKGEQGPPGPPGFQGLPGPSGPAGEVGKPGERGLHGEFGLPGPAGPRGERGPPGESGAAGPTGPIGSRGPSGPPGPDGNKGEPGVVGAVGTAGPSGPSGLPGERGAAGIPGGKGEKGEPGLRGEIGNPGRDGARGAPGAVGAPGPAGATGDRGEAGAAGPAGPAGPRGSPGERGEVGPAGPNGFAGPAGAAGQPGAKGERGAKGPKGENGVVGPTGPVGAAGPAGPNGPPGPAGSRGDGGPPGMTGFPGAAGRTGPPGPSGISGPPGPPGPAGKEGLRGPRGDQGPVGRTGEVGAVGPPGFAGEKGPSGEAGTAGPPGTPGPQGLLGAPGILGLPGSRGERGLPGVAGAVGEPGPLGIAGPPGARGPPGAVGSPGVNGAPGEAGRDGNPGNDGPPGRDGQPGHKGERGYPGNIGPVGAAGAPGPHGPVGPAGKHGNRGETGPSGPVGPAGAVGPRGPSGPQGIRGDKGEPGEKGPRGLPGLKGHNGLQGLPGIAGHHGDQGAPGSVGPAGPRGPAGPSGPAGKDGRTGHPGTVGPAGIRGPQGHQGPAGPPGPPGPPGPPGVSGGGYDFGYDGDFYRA
Test: dried collagen assay; also: test concentration or dose not given here
Bridge positions count the residues as written; N and C are the ends. Square brackets hold non-standard residues; d marks the D form. Ends that are not written are not given here.
measure-name: % bound
# number then unit; no other words

Would you please look over these solved cases?
{"binder": "YHACYAAGCWIW (disulfide 4-9 (inferred), cyclic, disulfide) [SEQ ID NO 134]", "measure-name": "% bound", "val": "14%"}
{"binder": "QWTCSGDEYTWHCN[dY]E (disulfide 4-13 (inferred); not fully specified (N-terminus); printed as QWTCSGDEYTWHCNyE, cyclic, disulfide) [SEQ ID NO 177]", "measure-name": "% bound", "val": "30%"}
{"binder": "WISCESSEEKISYCWRA (disulfide 4-14 (inferred), cyclic, disulfide) [SEQ ID NO 97]", "measure-name": "% bound", "val": "13%"}
{"binder": "YHAC[dY]QAGCWIW (disulfide 4-9 (inferred); not fully specified (C-terminus); printed as YHACyQAGCWIW, cyclic, disulfide; also called YHACyQAGCWIW) [SEQ ID NO 156]", "measure-name": "% bound", "val": "38%"}
{"binder": "TWRCDQFKGKWVCRGG (disulfide 4-13 (inferred), cyclic, disulfide) [SEQ ID NO 42]", "measure-name": "% bound", "val": "40%"}
{"binder": "GWFCKLVDGNWECSTK (disulfide 4-13 (inferred), cyclic, disulfide) [SEQ ID NO 53]", "measure-name": "% bound", "val": "12%"}
{"binder": "AWTCVGGEKTWGCVWN (disulfide 4-13 (inferred), cyclic, disulfide) [SEQ ID NO 33]", "measure-name": "% bound", "val": "12%"}
{"binder": "GQWTCSGAEYTWHCNYE (disulfide 5-14 (inferred), cyclic, disulfide) [SEQ ID NO 143]", "measure-name": "% bound", "val": "66%"}

Q) Return the recorded % bound value; entry: KWFCELMHDQWQCGSK (disulfide 4-13 (inferred), cyclic, disulfide) [SEQ ID NO 51]
A) 18%

Q) Return the recorded % bound value; entry: DWTCSGDHLTWKCNYG (disulfide 4-13 (inferred), cyclic, disulfide) [SEQ ID NO 117]
A) 38%

Q) Return the recorded % bound value; entry: WQLCSSRNDHVAYCFVS (disulfide 4-14 (inferred), cyclic, disulfide) [SEQ ID NO 96]
A) 17%
